- measurement_target: T1, KdpE (Escherichia coli, UniProt P21866 1-225)
- T1 sequence: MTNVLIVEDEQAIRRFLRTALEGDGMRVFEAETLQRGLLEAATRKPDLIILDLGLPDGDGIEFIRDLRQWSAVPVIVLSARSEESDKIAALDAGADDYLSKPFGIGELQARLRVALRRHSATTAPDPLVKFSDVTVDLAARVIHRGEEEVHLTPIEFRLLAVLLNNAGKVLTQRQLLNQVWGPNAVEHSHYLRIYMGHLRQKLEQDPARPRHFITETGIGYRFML
- assay_notes: fluorescence anisotropy
parameter: pKd
FYI, pKd means -log10 of a concentration in mol per litre.

Task: What pKd value was documented for this binder, 24-bp KdpE site DNA, TAMRA (anisotropy) (dsDNA) DNA 1: CATTTTTATACTTTTTTTACACCC DNA 2: GGGTGTAAAAAAAGTATAAAAATG ?
Output: 7.52
